// values below are reported inhibition
- target-entity: L-lactate dehydrogenase (Plasmodium falciparum (isolate CDC / Honduras)) (UniProt Q27743)
- Sequence (Q27743 whole entry, looked up): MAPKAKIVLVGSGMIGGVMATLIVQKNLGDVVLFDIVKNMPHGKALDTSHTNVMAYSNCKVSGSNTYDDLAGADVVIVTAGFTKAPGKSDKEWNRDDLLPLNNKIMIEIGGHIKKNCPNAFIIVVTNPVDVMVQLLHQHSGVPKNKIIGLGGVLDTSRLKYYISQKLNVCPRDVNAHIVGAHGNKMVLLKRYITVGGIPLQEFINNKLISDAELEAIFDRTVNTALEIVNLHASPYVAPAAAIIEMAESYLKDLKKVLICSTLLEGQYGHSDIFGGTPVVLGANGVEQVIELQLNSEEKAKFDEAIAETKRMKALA
- test-name: PfLDH activity inhibition – cell lysate, 3D7 strain, counter-screen for P. falciparum growth inhibition project (AID 2304);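 also: 0% = vehicle and 100% = reference inhibitor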
- condition-summary: P. falciparum 3D7 crude extract, LDH APAD/NBT absorbance; at 2 µM; hits give high values
measurement-type: inhibition (%)

INSERT INTO results (compound, unit_string, quantitative_readout) VALUES
  ('Clc1ccc(-c2cc(-c3csc(NCCN4CCCCC4)n3)on2)cc1', '%', -9),
  ('CCN1CCN(CCCNc2ccnc3cc(Cl)ccc23)CC1', '%', 2),
  ('CCCC(C)Nc1nc(C)cc(N[C@@H](Cc2ccccc2)C(=O)Nc2ccc(OC)cc2)n1 (stereo not given in full)', '%', -1),
  ('CN(C)CCC1CCCc2ccc(NC(=O)Nc3cccc(Cl)c3Cl)cc21 (stereo not given)', '%', 5),
  ('O=C(/C=C/c1ccc(Cl)c(Cl)c1)NCCCCCN1CCCC(C(=O)Nc2cccc(Cl)c2)C1 (stereo not given)', '%', -2),
  ('O=c1[nH]c2c(cc1CNC1CCCCC1)c(-c1ccc(F)cc1)nn2-c1ccccc1', '%', 6),
  ('Cc1cc(NC(=O)c2ccco2)ccc1OC1CCN(Cc2ccc(F)cc2)C1 (stereo not given)', '%', 5),
  ('O=C(NCC1CCN(Cc2ccsc2)C1)c1cc(-c2cccc(C(F)(F)F)c2)cs1 (stereo not given)', '%', -2),
  ('OCCN1CCN(c2nc(Nc3cccc(F)c3)c3cnn(-c4ccccc4)c3n2)CC1', '%', -2),
  ('CO/C(=C\C=C\c1cc2cc(Cl)c(Cl)cc2[nH]1)C(=O)NC1CCN(CCNc2ccccc2)CC1', '%', 1);

###

// values below are reported growth inhibition
- test-name: inhibition of 3D7 malaria parasite growth – strain 3D7 (AID 2306);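 also: 0% = DMSO wells and 100% = chloroquine plus artemisinin control wells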
- condition-summary: P. falciparum 3D7 erythrocytic growth, LDH absorbance, 72 h; at 2 µM; hits give high values
The source made the active and inactive calls. The rule behind the calls is not given here.
measurement-type: growth inhibition

INSERT INTO results (compound, result) VALUES
  ('FC(F)(F)COc1ccc(CCNCCCCNCCc2ccc(OCC(F)(F)F)c3ccccc23)c2ccccc12', '99% (active)'),
  ('CN(C)CCN(C)Cc1ccc(-c2ccc(NC(=O)c3cccc(Cl)c3)cc2)cc1', '94% (active)'),
  ('CC(=O)Nc1ccc(C(=O)Nc2ccc(-c3cccc(-c4nc5ccc(F)cc5[nH]4)c3)cc2)cn1', '100% (active)'),
  ('COc1cccc(CN2CCCN(Cc3cccc(NC(=O)c4cc5ccccc5s4)c3)CC2)c1', '89% (active)'),
  ('CCNc1cc(C(=O)N[C@@H](Cc2ccccc2)[C@H](O)CNC2CCC(C)(C)C2)cc(N2CCCCS2(=O)=O)c1 (some centres undefined)', '96% (active)'),
  ('COc1ccc(-c2ccc(NC(=O)c3cccs3)cc2)cc1CN1CCCN(C)CC1', '100% (active)'),
  ('COc1ccc(Cc2c(N)nc3nc(N)nc(N)c3c2C)cc1', '94% (active)'),
  ('Cc1cccc2[nH]c(-c3ccc(-c4ccc(CNCCCN5CCCC5=O)cc4)s3)nc12', '101% (active)'),
  ('Cc1ccc2nc(-c3cc(-c4ccc(CO)cc4)cnc3N)[nH]c2c1', '95% (active)');

###

// values below are reported inhibition
- target-entity: L-lactate dehydrogenase (Plasmodium falciparum (isolate CDC / Honduras)) (UniProt Q27743)
- test-name: PfLDH activity inhibition – cell lysate, 3D7 strain, counter-screen for P. falciparum growth inhibition project (AID 2304);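 also: 0% = vehicle and 100% = reference inhibitor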
- condition-summary: P. falciparum 3D7 crude extract, LDH APAD/NBT absorbance; at 2 µM; hits give high values
measurement-type: inhibition (%)

INSERT INTO assay_data (compound, unit_string, quantitative_readout) VALUES
  ('CCCN1CCN(c2ccccc2NS(=O)(=O)c2ccc(C(=O)Nc3ccc(Cl)cc3)cc2)CC1', '%', -2),
  ('CCCCCN1CCCN(Cc2cccc(NC(=O)c3cc4ccccc4s3)c2)CC1', '%', 6),
  ('Cc1cc2nc(-c3ccc(/C=C/C(=O)NCCCc4ccccc4)cc3)[nH]c2cc1C', '%', -4),
  ('COc1ccc(N(c2nc(-c3cc(Cl)ccc3Cl)cs2)C2CCNC2)cc1 (stereo not given)', '%', 3),
  ('CCOc1ccc(C(=O)N2CCOC(CCN3CCC4(CCc5ccccc54)CC3)(c3ccc(Cl)c(Cl)c3)C2)cc1 (stereo not given)', '%', 1),
  ('CC(C)(C)c1ccc(C(=O)NC2CCC(CCN3CCc4ccc(S(C)(=O)=O)cc4CC3)CC2)cc1C(F)(F)F (stereo not given)', '%', -8),
  ('NCCC(=O)Nc1ccc(-c2cnc3[nH]cc(-c4ccc(C(=O)O)cc4)c3c2)cn1', '%', 3),
  ('CN(C)c1ccc(C=CC(=O)NC(=O)c2ccccc2O)cc1', '%', -1),
  ('CN1CCN(c2ccnc3ccc(NC(=O)Nc4cccc5c(Br)cccc45)cc23)CC1', '%', 6),
  ('CCOc1ncccc1CN1CCC(N2CCc3cc(NC(=O)c4cc(C)on4)ccc32)C1 (stereo not given)', '%', -1),
  ('O=C(/C=C/c1ccc(Cl)c(Cl)c1)NCCCCCN1CCC(NC(=S)Nc2ccc(F)cc2F)CC1', '%', 1),
  ('CCCc1cc(OC)c(C[C@H]2c3cc(O)c(Cl)cc3CCN2C)cc1OC', '%', -6),
  ('CC(=O)c1c[nH]c(C(=O)Nc2ccc(-c3cn4ccccc4n3)cc2)c1', '%', 4),
  ('Cc1cccc(C)c1CNc1ccnc2cc(C#N)ccc12', '%', -1),
  ('O=c1[nH]c2c(cc1CNC1CCCCC1)c(-c1cccc(F)c1)nn2-c1ccccc1', '%', 7),
  ('CC(CN(C)C)C(=O)Nc1cccc(-c2cccc(-c3nc4ccc(F)cc4[nH]3)c2)c1 (stereo not given)', '%', 5),
  ('COc1cc2nc(N[C@@H](CO)c3ccccc3)nc(NCc3ccccc3)c2cc1OC', '%', 1),
  ('CC(C)(CNC(=O)/C=C/c1ccc(C(F)(F)F)cc1)CNc1cc(=O)c2ccccc2[nH]1', '%', -6),
  ('Cc1ccc(CNc2cc(C(F)(F)F)nc(-c3ccc(S(C)(=O)=O)cc3)n2)cc1', '%', -4),
  ('CNC(=O)C1Cc2c([nH]c3ccc(Cl)cc23)C2(CCN(CCc3ccccc3)CC2)N1 (stereo not given)', '%', -2);

###

- test-name: inhibition of 3D7 malaria parasite growth – strain 3D7 (AID 2306);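 also: 0% = DMSO wells and 100% = chloroquine plus artemisinin control wells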
- condition-summary: P. falciparum 3D7 erythrocytic growth, LDH absorbance, 72 h; at 2 µM; hits give high values
measurement-type: growth inhibition (%)

INSERT INTO assay_data (compound, unit_string, quantitative_readout) VALUES
  ('CN1CCC(N2CCN(Cc3cccc(-c4ccc(-c5nc6ccc(F)cc6[nH]5)cc4)c3)CC2)CC1', '%', 100),
  ('CC(C)COc1ccc(Cl)cc1Cc1ccc(-c2nc3ccc(Cl)cc3[nH]2)o1', '%', 97),
  ('CSc1ccc2nccc(Nc3ccc(Oc4ccccc4)cc3)c2c1', '%', 94),
  ('CC(CNC(=O)C(c1cc2ccccc2o1)N1CCN(C(c2ccccc2)c2ccccc2)CC1)c1ccccc1 (stereo not given)', '%', 99),
  ('CN1CCc2ccc(NC(=O)Nc3cccc([N+](=O)[O-])c3)cc2C1', '%', 87),
  ('COc1ccc2c(c1)ncn2-c1cc(OCc2ccncc2Br)c(C(N)=O)s1', '%', 95),
  ('CCN(CC)c1ccccc1CNC(=O)c1cc(Cl)c(N)cc1OC', '%', 97),
  ('COc1ccc(-c2nc(NC(=O)CSc3ccccc3)sc2C)cc1', '%', 94),
  ('COc1ccccc1C1CCN(C2CCC(NC(=O)/C=C/c3ccc(OC(F)(F)F)cc3)CC2)CC1 (stereo not given)', '%', 82),
  ('Clc1ccc2c(NCc3ccccc3)ccnc2c1', '%', 101),
  ('COc1ccc(O)cc1Cc1cnc2nc(N)nc(N)c2c1C', '%', 92),
  ('Cc1cccc2[nH]c(-c3ccc(-c4cccc(CN5CCCC5CN)c4)cc3)nc12 (stereo not given)', '%', 91),
  ('O=c1c2ccccc2[nH]c2nc3ccccc3c(Nc3ccccc3)c12', '%', 98),
  ('Cc1cccc2[nH]c(-c3cccc(-c4ccc(NC(=O)CC5NC(=O)c6ccccc65)cc4)c3)nc12 (stereo not given)', '%', 100),
  ('COC(=O)c1cccc(CNCc2ccc(-c3ccc(-c4nc5c(C)cccc5[nH]4)s3)cc2)c1', '%', 101),
  ('COc1cc2c(C3CCN(CC4CCN(C(=O)/C=C/c5ccc(Cl)c(Cl)c5)CC4)CC3)c[nH]c2cn1', '%', 101),
  ('O=C(Nc1ccc(-c2nc3ccccc3[nH]2)cc1)C1CCN(Cc2cccc(F)c2F)CC1', '%', 97),
  ('CCN(CC)CCOc1ccc(C(O)(C#CC(O)(c2ccc(Br)cc2)c2ccc(OCCN(CC)CC)cc2)c2ccc(Br)cc2)cc1 (stereo not given)', '%', 99),
  ('COc1cc(Cc2cnc(N)nc2N)cc(OCCCN2C(=O)c3ccccc3C2=O)c1OC', '%', 96),
  ('Cc1ccc(NS(=O)(=O)c2ccc(C(C)N3CCC(N4CCCCC4)CC3)cc2)cc1C (stereo not given)', '%', 97),
  ('Cc1ccc(F)c(NC(=O)c2c(-c3c(F)cccc3Cl)noc2C)c1', '%', 90),
  ('CCC(=O)c1c(C)n(-c2ncnc3c2nc(C)n3-c2ccc(C)cc2C)c2ccccc12', '%', 96),
  ('C[C@@H]1CN(c2ncc(-c3ccc(CNC4Cc5ccccc5C4)cc3)cn2)C[C@H](C)N1', '%', 85),
  ('COc1cc2nc(N3CCC(C(N)=O)CC3)nc(NCc3ccccc3)c2cc1OC', '%', 100),
  ('O=C1c2ccccc2C(=O)N1CCOc1c(Br)cc(Br)cc1CNCCCNc1cc(=O)c2ccccc2[nH]1', '%', 92),
  ('Cn1nccc1C(=O)NCCNCc1cccc(-c2ccc(-c3nc4ccccc4[nH]3)cc2)c1', '%', 100),
  ('Oc1ccc2[nH]c(-c3ccc(OC(F)(F)F)cc3)nc2c1CNC1CCCC1', '%', 99),
  ('O=C(N[C@@H](CC1CCCCC1)C(=O)NCCN1CCOCC1)c1ccc(O)c(-c2ccc(Cl)c(Cl)c2)c1', '%', 97),
  ('O=C(Nc1ccc(-c2nc3ccccc3[nH]2)cc1)c1ccc(Cl)s1', '%', 99),
  ('COc1ccc(C(=O)COc2cccc(/C=C/C(=O)O)c2)cc1OC', '%', 84),
  ('COc1ccc(CN2CCCN(Cc3cccc(NC(=O)c4cc5ccccc5s4)c3)CC2)cc1', '%', 94),
  ('CC(C)C[C@@H](NC(=O)OC(C)(C)C)C(=O)Nc1ccc(Cc2ccc(NC(=O)[C@@H](CC(C)C)NC(=O)OC(C)(C)C)cc2)cc1', '%', 96),
  ('Cc1cnc(C(=O)Nc2cccc(-c3cccc(-c4nc5ccc(F)cc5[nH]4)c3)c2)cn1', '%', 99),
  ('CCCCc1cc(NCc2ccncc2)nc(Nc2ccccc2)n1', '%', 96),
  ('CC(=O)c1cccc(NC(=O)NC2CCN(c3ccnc(Nc4ccc(F)cc4)n3)C2)c1 (stereo not given)', '%', 99),
  ('CC(C)c1cc(C(=O)N[C@@H](Cc2ccccc2)[C@H](O)CNC2CCCCC2)cc(N2CCCC2=O)c1', '%', 101),
  ('CCC(CC)n1c(C)cc2c3c(N)nc(N)nc3ccc21', '%', 95),
  ('COc1cc(C=NNc2cc(C)nc3ccccc23)cc(OC)c1OC', '%', 102),
  ('O=S(=O)(NCCN1CCCC1)c1cccc(-c2ccc(CNCc3ccsc3)cc2)c1', '%', 101),
  ('Cc1nc2nc(N)nc(N)c2c(C)c1Cc1ccc(C(N)=O)cc1', '%', 97);

Data credit: PubChem BioAssay
